- Test system: OVCAR-4
- assay details: NCI tumour cell line growth inhibition, 48 h
The source made the active and inactive calls. Cut-off read from the data, not from the text of the source: active = GI50 up to about 1.1 µM and inactive = higher.
Allowed answers: yes (1) for active, no (0) for inactive

A selection of reference data follows.
CCC(C)c1cnc(CC(C)C)c(=O)[nH]1 (centres undefined)
no (0)
O/N=C1\CSc2ccccc2C1
no (0)
O=c1c(Cc2ccc(Cl)cc2)nnc2sc(-c3ccc(-c4ccc(Cl)cc4Cl)o3)nn12
no (0)
Nc1ncnc2c(C3OC(CO)C(O)C3O)c[nH]c12 (centres undefined)
yes (1)
CC(=O)OC(/C=C/c1ccccc1)=C(OC(C)C)/C1=C(\c2ccccc2)SCCCSC1=O
no (0)
CC(=O)c1c(C(F)(F)F)[n+]([O-])c2cc(Cl)c(Cl)cc2[n+]1[O-]
no (0)
Cc1ccc(C(=O)Nc2ccc(CP(=O)(O)O)cc2CP(=O)(O)O)cc1NC(=O)c1cccc(N)c1
no (0)
O=C(Nc1ccccc1)OC1OC(COC(=O)c2ccccc2)C(OC(=O)c2ccccc2)C1OS(=O)(=O)c1ccc([N+](=O)[O-])cc1 (centres undefined)
no (0)

From here, focus on the item given below.
Exam item: For COc1cccc(N2C(=O)C3C4C=C5c6ccccc6N(c6ccccc6)C5(C3C2=O)[C@H]2C(=O)N(c3cccc(OC)c3)C(=O)[C@@H]42)c1 (some centres undefined) , which call appears in the assay record?
Marked response: no (0)

====

- System: SF-295
- assay details: NCI tumour cell line growth inhibition, 48 h
Active and inactive are the calls of the source. Cut-off read from the data, not from the text of the source: active = GI50 up to about 1.1 µM and inactive = higher.
test readout: GI50

Some molecules with known GI50 results, for comparison:
N#C/C=C1\C=CC(O)C(O)C1OC1OC(CO)C(O)C(O)C1O (stereo not drawn)
> 100 µM (inactive)
O=C(c1nsc(Cl)c1Cl)N1CCCCC1
> 100 µM (inactive)

For the next question, use this molecule.
Exam item: GET /values?readout=GI50&item= "CC(=O)/C(=C\c1ccccc1O)C(=O)Nc1ccccc1C"
Marked response: 23.2 µM (inactive)

====

Quick list: GI50 per entry.
- Tested on: UO-31
- assay details: NCI tumour cell line growth inhibition, 48 h
Calls of active or inactive are those of the source. Cut-off read from the data, not from the text of the source: active = GI50 up to about 1.1 µM and inactive = higher.

Some compounds with known GI50 results, for comparison:
O=C(Nc1ccccc1)OCCN=C1c2ccccc2C(Br)C(Br)c2ccccc21 (stereo not given)
2.02 µM (inactive)
N#CCCCCC12C3C(=O)N(c4ccccc4)C(=O)C3ON1O[C@@H]1C(=O)N(c3ccccc3)C(=O)[C@@H]12 (stereo not given in full)
> 100 µM (inactive)
COC(=O)c1ccc([N+](=O)[O-])c(O)c1
> 100 µM (inactive)
CC(=O)Nc1ccc(/C=C2/NC(=S)N(/C=C3\C(=O)Oc4ccccc4C3=O)C2=O)cc1
39.5 µM (inactive)

For the next question, use this compound.
Exam item: Observed GI50 on UO-31 for C=C1C(=O)C([Si](C)(C)C)=C2C=C(C)C3(CC3)C12C (stereo not given) , please.
Marked response: 43.8 µM (inactive)

====

- Test system: IGROV-1
- assay details: NCI tumour cell line growth inhibition, 48 h
Calls of active or inactive are those of the source. Rule as the data show it: active = GI50 up to about 1.1 µM and inactive = higher.
Quick list: GI50 per entry.

Some compounds with known GI50 results, for comparison:
Cc1ccc(S(=O)(=O)n2c3c(c4ccccc42)CCN2C[C@H]([C@H](C)Br)CC[C@@H]32)cc1
> 100 µM (inactive)
CCSc1[nH]c(NC(=S)NC(=O)c2ccccc2Cl)c(C(N)=O)c1C(N)=O
> 10 µM (inactive)
CC(=O)OC/C=C/[C@H](O[Si](C)(C)C(C)(C)C)[C@@H](O)/C=C/COC(C)=O
> 100 µM (inactive)
CC(C(=O)NCCNC(=O)CCCC(=O)N(C)O)C(=O)NCCNC(=O)CCCC(=O)N(C)O
> 100 µM (inactive)
Cc1nc2ccccc2c(=O)n1/N=C(\N=N\c1ccccc1)c1ccccc1Cl
39.9 µM (inactive)
CC(=O)OCC1OC(n2c(S)nc(-c3ccccc3)c(C#N)c2=O)C(OC(C)=O)C(OC(C)=O)C1OC(C)=O (stereo not given)
> 100 µM (inactive)

Exam item: GET /values?readout=GI50&item= CCCCN(C(=O)c1ccccc1)C1CCC(=O)c2[nH]c3ccccc3c21 (stereo not given)
Marked response: 46.3 µM (inactive)

Exam item: Let us now turn to CC(Cc1ccc(O)cn1)(NC(=O)c1ccccc1)C(=O)O (stereo not given)
Marked response: > 100 µM (inactive)

Exam item: Let us now turn to COc1ccc2c(c1)C(=O)CC(N)C2 (stereo not given)
Marked response: > 100 µM (inactive)

Exam item: Let us now turn to "Cc1ccc(/C=C2\NC(=S)N(CN3CCCCC3)C2=O)cc1"
Marked response: > 100 µM (inactive)

====

- Test system: T47D
- assay details: NCI tumour cell line growth inhibition, 48 h
Active and inactive are the calls of the source. Cut-off read from the data, not from the text of the source: active = GI50 up to about 1.1 µM and inactive = higher.
Allowed answers: active, inactive

A selection of reference data follows.
CC1=NN(C(=O)c2ccccc2O)C(=O)/C1=C/c1c(O)ccc2ccccc12
inactive
CC(=O)O[C@H]1C(=O)[C@@]2(C)[C@H]([C@H](OC(=O)c3ccccc3)[C@]3(O)C[C@H](OC(=O)[C@H](OC(=O)OCCC(O)CO)[C@@H](NC(=O)c4ccccc4)c4ccccc4)C(C)=C1C3(C)C)[C@]1(OC(C)=O)CO[C@@H]1C[C@@H]2O (stereo partly drawn)
active
C=C1C(=O)O[C@H]2[C@H]1CC(=O)/C(C)=C/CC[C@@]1(C)O[C@@H]21
active
CCN(CC(COc1ccc2c(c1)[n+]([O-])nc(N)[n+]2[O-])OC(C)=O)C(C)=O (stereo not drawn)
inactive

Exam item: For "O=c1c2cccnc2[nH]c2ccc3scnc3c12" , which call appears in the assay record?
Marked response: inactive

====

- System: OVCAR-5
- assay details: NCI tumour cell line growth inhibition, 48 h
Activity calls are given as the source filed them. Rule as the data show it: active = GI50 up to about 1.1 µM and inactive = higher.
test readout: GI50

Some molecules with known GI50 results, for comparison:
O/N=C1\CSc2ccccc2C1
> 100 µM (inactive)
C=C1C(=O)C([Si](C)(C)C)=C2C=C(C)C3(CC3)C12C (stereo not given)
> 100 µM (inactive)
CC1(Br)C(=O)NC(=O)N([C@H]2C[C@H](O)[C@@H](CO)O2)C1N=[N+]=[N-] (stereo not given in full)
> 76.2 µM (inactive)
CC1=CP(=O)(c2c(C(C)C)cc(C(C)C)cc2C(C)C)CCC1Cl (stereo not given)
16.4 µM (inactive)
CCCCCCC1OC23OC1CCC2C(O)CCC3O (stereo not given)
> 100 µM (inactive)
CCOC(=O)C(=Cn1c(=S)[nH]c2ccc([N+](=O)[O-])cc21)C(=O)OCC
> 100 µM (inactive)

Exam item: Observed GI50 on OVCAR-5 for O=[N+]([O-])c1cccc2nccc(NCC(O)CO)c12 (stereo not given) , please.
Marked response: 21 µM (inactive)

Exam item: Let us now turn to COC(=O)C12OCC34C(CC5C(C)C6=CC(=O)OC6=CC5(C)C3C(O)C1O)OC(=O)C(OC(C)=O)C24 (stereo not given)
Marked response: 23.1 µM (inactive)

Exam item: Let us now turn to "CC(C(=O)NCCNC(=O)CCCC(=O)N(C)O)C(=O)NCCNC(=O)CCCC(=O)N(C)O"
Marked response: > 100 µM (inactive)

Exam item: Let us now turn to "Cn1c(COC(=O)NC2CCCCC2)c(COC(=O)NC2CCCCC2)c2ccc3ccccc3c21"
Marked response: 43.5 µM (inactive)

====

- Tested on: SK-OV-3
- assay details: NCI tumour cell line growth inhibition, 48 h
Calls of active or inactive are those of the source. Cut-off read from the data, not from the text of the source: active = GI50 up to about 1.1 µM and inactive = higher.
test readout: GI50

Some compounds with known GI50 results, for comparison:
Cc1ccc(C(=O)Nc2ccc(CP(=O)(O)O)cc2CP(=O)(O)O)cc1NC(=O)c1cccc(N)c1
> 100 µM (inactive)
Oc1c(Br)ccc2cccnc12
4.21 µM (inactive)
CC(C)(C)[Si](C)(C)OCC1OC(n2cc(F)c(=O)[nH]c2=O)CC1O[Si](C)(C)C(C)(C)C (stereo not given)
14 µM (inactive)

Exam item: GET /values?readout=GI50&item= "Cn1nc(-c2ccccc2)c2c(/C=C/c3ccc(Cl)cc3)onc2c1=O"
Marked response: > 10 µM (inactive)

Exam item: Let us now turn to CC1=CP(=O)(c2c(C(C)C)cc(C(C)C)cc2C(C)C)CCC1Cl (stereo not given)
Marked response: 19.4 µM (inactive)

Exam item: Let us now turn to "CCOCC(=O)N[C@H]1CCc2cc(OC)c(OC)c(OC)c2-c2ccc(SC)c(=O)cc21"
Marked response: 0.0272 µM (active)

Exam item: Let us now turn to "CC1=C(C)CC2(SC1)C(=O)c1ccccc1C2=O"
Marked response: > 100 µM (inactive)

Exam item: Let us now turn to COc1cc(COC(=O)N2CC=CC2C(=O)O)c([N+](=O)[O-])cc1OC (stereo not given)
Marked response: > 100 µM (inactive)

Exam item: Let us now turn to "Cc1cc2oc(C)c(S(=O)(=O)NC(=O)Nc3ccc(Cl)cc3)c(=O)c2c(=O)o1"
Marked response: > 100 µM (inactive)

Exam item: Let us now turn to "COc1ccc(Cl)cc1NC(=O)c1cccc([N+](=O)[O-])c1O"
Marked response: 24.7 µM (inactive)
